system: K562; experiment: Antiproliferative activity against human K562 cells after 5 days by MTT assay; format: functional, cell-based; details: Homo sapiens, K562, 120 h
readout: pIC50
// pIC50 here means minus log10 of the molar concentration (mol/L)

Solved cases below.
molecule | pIC50
COc1cc(OC)c(C(=O)/C=C/c2ccc(OC)c(OC)c2OC)c(OC)c1 | 6.52
COc1cc(C(=O)[C@H]2O[C@@H]2c2ccc(C)cc2)cc(OC)c1OC (racemic) | 5.47
COc1ccc(/C=C/C(=O)c2ccc(O)cc2)cc1 | 5.00
COc1ccc(/C=C/C(=O)c2cc(OC)c(OC)c(OC)c2)cc1F | 6.52

API: the following record is the query input.
Form field pIC50 for item `COc1cc(/C=C/C(=O)c2ccc3c(c2)OCCO3)cc(OC)c1OC` on K562: 5.25

Taken from ChEMBL document CHEMBL1152676.
